The measured values listed here are drawn from the Human Domainome abundance scans (Beltran et al. 2025).

B1: Far upstream element-binding protein 2, residues 142 to 214; numbered along this chain, Q92945 (parent)
chain: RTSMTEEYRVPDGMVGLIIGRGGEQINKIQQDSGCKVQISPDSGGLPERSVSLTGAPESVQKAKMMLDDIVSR

# Variants of: B1
# EXPERIMENTAL_DETAILS: abundance fitness (aPCA) (normalised: wild type 0, dead -1); higher = more abundant; growth selection in yeast, the domain comes from the species named
# RECORDED_CONDITIONS: Homo sapiens
VALUE_KIND: abundance fitness
Answers are plain numbers.

Field: example entries. Status: answers known.
{"MUTANT_DESIGNATION": "D68K", "VALUE_KIND": "abundance fitness", "TEST_VALUE": -0.098}
{"MUTANT_DESIGNATION": "R73W", "VALUE_KIND": "abundance fitness", "TEST_VALUE": -0.201}

Consider the following items and state reported abundance fitness for each.
1. R21V
2. G22N
3. C35N
4. S52Y

[-0.068, -0.167, -0.914, 0.097]

Consider the following items and state reported abundance fitness for each.
1. S33N
2. G45H
3. Q30D

1: -0.897; 2: -0.011; 3: -1.02

Consider the following items and state reported abundance fitness for each.
1. E58H
2. A56M
3. R21W
4. I39K
5. V71N
6. R21C
7. A56Y

1. -0.071
2. -0.154
3. -0.353
4. -0.701
5. -0.461
6. -0.012
7. -0.091
